// provenance: patent US20260209346A1

Molecular target: T1, CD79b endogenously expressed on the cell surface (malignant B cell lines, normal B cells in PBMC, CLL … (human, UniProt P40259 29-229))
T1 construct: whole, on cells; On cells CD79b stands in the B-cell receptor complex with CD79a and surface Ig; also called cell surface CD79b; endogenous CD79b
T1 sequence (looked up): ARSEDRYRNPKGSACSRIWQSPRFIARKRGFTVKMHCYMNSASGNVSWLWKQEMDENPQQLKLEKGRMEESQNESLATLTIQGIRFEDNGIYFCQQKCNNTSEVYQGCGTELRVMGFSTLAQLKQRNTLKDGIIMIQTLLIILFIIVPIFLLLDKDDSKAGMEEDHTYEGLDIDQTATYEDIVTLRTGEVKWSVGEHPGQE
Assay: flow cytometry on a cell line expressing endogenous CD79b (not named on the sheet or in the text); MFI (PE)
reported_property: EC50 (read off the curve)

1) hu23D8 (antibody, V domains shown, Humanized antibody; also called humanized 23D8) VH: EQQLLESGGGLVQPGGSLRLSCAVSGLSLSSNAINWVRQAPGKGLEWIGMIYSGGRIEYASWAKGRFTISKDSSKNTVYLQMNSLRAEDTAVYFCAKGMSPSAHSSDIWGPGTLVTVSS VL: EGVMTQSPATLSVSPGERATLSCQASQSISDNLSWYQQKPGQPPRLLIYDASDLASGVPARFSGSGSGTEFTLTISSLQSEDFAVYYCQQDWISSNVDNTFGGGTKVEIK: ~500 pM
2) ch57B9 (antibody, human IgG1, kappa, V domains shown, Rabbit/human chimeric IgG1 kappa; also called chimeric 57B9) VH: QSVRETGGGLVQPGGSLTLSCEASEFTINIDYWISWVRQAPGKGLEWIGIIDPGDGTTYFAIWVSGRFTITRNTNLNTVDLKMTSLTEADTATYFCAREVSASAYQYDLWGPGTLVTVSS VL: ALVMTQTPSSVSADVGGTVSINCQASEDIESYLAWYQQKPGQPPKLLIYFTSNLASGVPSRFKGSGSGTEYTLTISGVQPDDAATYYCQQGYRNSDVHNPFGGGTEVVVKR: ~300 pM

Here is the next item to consider.
# return recorded EC50 (read off the curve) for input hu57B9 (antibody, V domains shown, Humanized antibody; also called humanized 57B9) VH: EQQLVETGGGLIQPGGSLRLSCAASEFTINIDYWISWVRQAPGKGLEWIGIIDPGDGTTYFAIWVSGRFTISRDTSKNTVYLQMNSLRAEDTAVYFCAREVSASAYQYDLWGPGTLVTVSS VL: ELVMTQSPATLSVSPGERATLSCQASEDIESYLAWYQQKPGQPPRLLIYFTSNLASGVPARFSGSGSGTEYTLTISSLQSEDFAVYYCQQGYRNSDVHNPFGGGTKVEIK
~200 pM
